- testedTarget: T1, M1
- T1 construct: also called PD1 mutant M1
- runDescription: scFv-phage ELISA
Overview of recorded OD490 for various binders
quantity: OD490

[[record]]
binder = "PD1-42G4 (antibody, V domains shown, scFv-phage in the screening ELISA; later whole IgG) VH: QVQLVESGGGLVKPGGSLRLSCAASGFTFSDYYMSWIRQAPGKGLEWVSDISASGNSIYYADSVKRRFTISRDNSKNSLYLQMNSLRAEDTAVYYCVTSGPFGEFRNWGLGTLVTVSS VL: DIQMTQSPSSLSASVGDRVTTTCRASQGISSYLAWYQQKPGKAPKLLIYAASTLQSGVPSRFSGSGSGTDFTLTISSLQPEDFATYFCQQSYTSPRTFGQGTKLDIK"
resultvalue = 1.8

[[record]]
binder = "PD1-51D9 (antibody, V domains shown, scFv-phage in the screening ELISA; whole IgG in the other assays) VH: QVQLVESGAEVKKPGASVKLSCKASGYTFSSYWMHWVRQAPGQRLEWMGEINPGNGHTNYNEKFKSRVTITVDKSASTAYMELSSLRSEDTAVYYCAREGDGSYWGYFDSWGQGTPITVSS VL: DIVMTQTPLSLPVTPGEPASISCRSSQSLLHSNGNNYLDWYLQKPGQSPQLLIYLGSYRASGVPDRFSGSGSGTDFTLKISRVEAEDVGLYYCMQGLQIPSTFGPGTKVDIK"
resultvalue = 0.2

[[record]]
binder = "PD1-49B9 (antibody, V domains shown, scFv-phage in the screening ELISA; later whole IgG) VH: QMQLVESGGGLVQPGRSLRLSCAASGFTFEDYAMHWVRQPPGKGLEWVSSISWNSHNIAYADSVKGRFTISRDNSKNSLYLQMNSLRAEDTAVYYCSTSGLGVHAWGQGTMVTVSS VL: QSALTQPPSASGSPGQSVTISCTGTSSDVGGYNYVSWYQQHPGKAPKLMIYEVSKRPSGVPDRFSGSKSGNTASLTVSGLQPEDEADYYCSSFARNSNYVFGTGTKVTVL"
resultvalue = 3.9

[[record]]
binder = "PD1-44B5 (antibody, V domains shown, scFv-phage in the screening ELISA; later whole IgG) VH: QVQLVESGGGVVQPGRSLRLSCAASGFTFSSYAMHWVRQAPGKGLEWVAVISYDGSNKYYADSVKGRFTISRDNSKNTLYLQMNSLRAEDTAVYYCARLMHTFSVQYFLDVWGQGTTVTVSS VL: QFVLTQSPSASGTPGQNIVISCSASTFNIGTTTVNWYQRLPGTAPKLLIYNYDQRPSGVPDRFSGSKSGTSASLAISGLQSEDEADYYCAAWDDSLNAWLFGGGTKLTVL"
resultvalue = 3.8

[[record]]
binder = "PD1-45D6 (antibody, V domains shown, scFv-phage in the screening ELISA; whole IgG in the other assays) VH: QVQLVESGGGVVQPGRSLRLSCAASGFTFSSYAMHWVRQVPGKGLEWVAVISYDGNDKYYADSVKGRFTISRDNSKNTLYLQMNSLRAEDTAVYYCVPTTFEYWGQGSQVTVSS VL: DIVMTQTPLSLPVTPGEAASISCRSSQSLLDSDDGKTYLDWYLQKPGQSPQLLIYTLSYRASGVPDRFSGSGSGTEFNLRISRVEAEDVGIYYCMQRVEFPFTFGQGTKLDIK"
resultvalue = 4

